Each entry below carries its recorded growth.
Test system: T-47D breast
Test: NCI-60 one-dose screen, 48 h (100 = growth as untreated, 0 = no growth, -100 = all killed)
Details: 10 µM unless noted
This is part of a sample that, as a whole, favours compounds with a hit. Of some 83,000 tested, about 20% had one in any assay.
Note: unit % is implicit; provide only the numeric part.

Quick one: growth for `FC(F)(F)c1cc(NC2=NCCN=C(Nc3cc(C(F)(F)F)cc(C(F)(F)F)c3)SS2)cc(C(F)(F)F)c1` ?
15.8

growth lookup needed for `Cc1ccc([N+](=O)[O-])c(C)n1` , thanks.
102

Reported growth for CC1(c2ccccc2)CO1 (centres undefined) : what is it?
109

Form field: reported growth of `O=C1Nc2ccccc2/C1=C\c1ccccc1O`
71.9

Consider the compound shown here: NNC(=O)N/N=C1\C(=O)N(c2nccs2)C(=O)C(=O)C1c1nc2ccccc2s1 (centres undefined) What is its recorded growth?
77.1

====

System: T-47D breast
Test: NCI-60 one-dose screen, 48 h (100 = growth as untreated, 0 = no growth, -100 = all killed)
Settings: 10 µM unless noted
This is part of a sample that, as a whole, favours compounds with a hit. Of some 83,000 tested, about 20% had one in any assay.
Please respond with Y when measured growth is strictly beneath 90%, and with N in all other cases.

Record excerpt, results attached:
1. Nc1ncnc2c1ncn2C1OC(CO)C2OC21 (centres undefined)	Y
2. CC(C)(CC(=O)O)CC(=O)O	N
3. COC1OC(CO)C(OC)C(O)C1O (centres undefined)	N
4. CCCCCCCCCCCCSC1=C(Cl)C(=O)C(OC)=C(OC)C1=O	Y
5. C=C1SC(=Nc2c(C)cccc2C)N(c2nc(Cl)nc(Cl)n2)C12CCCCC2	N

Given `CCOC(=O)c1ccc(NC(=O)Nc2nccs2)cc1` , is recorded growth strictly lower than 90%?
Y

Bench note: check whether CN1CCCN(C(c2ccccc2)c2ccc(Cl)cc2)CC1 (centres undefined) shows growth below 90%
Y

# check: growth < 90% for `OCCNc1ccccc1`
N
